- target.of.assay: Macrophage migration inhibitory factor (Homo sapiens)
- Sequence (P14174 whole entry): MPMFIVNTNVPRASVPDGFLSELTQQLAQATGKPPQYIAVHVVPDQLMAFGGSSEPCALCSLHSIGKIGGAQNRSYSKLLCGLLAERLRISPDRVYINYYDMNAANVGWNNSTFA
- experiment.description: Inhibition of human MIF tautomerase activity
For each record, write down the corresponding pIC50.
// scale note: pIC50 = -log10(conc_M); give the bare number

Query :: Fill in: pIC50 of CC(=O)c1cc2ccc(O)cc2oc1=O is ___
Result :: 4.34

Query :: Fill in the blank: the reported pIC50 of O=Nc1c(-c2ccccc2)cc2ccccn12 is ____.
Result :: 3.92

Query :: Param item = O=C(Oc1ccc(-c2ccccc2)nn1)c1cccs1 ; retrieve measured pIC50.
Result :: 7.30

Query :: Recorded pIC50 for COc1ccccc1C(=O)n1nnc2ccccc21 , please?
Result :: 5.16

Query :: Endpoint output: pIC50 of O=[N+]([O-])c1cc(S(=O)(=O)C(F)(F)F)ccc1Sc1nnc(S)s1 . Value?
Result :: 5.02

Query :: Recorded pIC50 of COC(=O)CSc1nnc(-c2cccs2)n1C , please.
Result :: 4.73

Query :: Recorded pIC50 for O=C(c1ccccc1)c1cc2ccc(O)cc2oc1=O , please?
Result :: 4.19

Query :: Please look up its pIC50: S=C(Nc1ccccc1)Nc1nncs1
Result :: 6.52

Query :: Record request: pIC50 value, item CCOC(=O)/C(C#N)=C/c1ccc(O)cc1O
Result :: 4.21

Query :: Entry S=C(Nc1ccccn1)Nc1ccccc1Cl : reported pIC50 = ?
Result :: 5.98

Query :: Requested field: pIC50. Item: O=[N+]([O-])c1ccc(NCc2ccco2)c2nonc12
Result :: 4.22

Query :: Record request: pIC50 value, item O=C(NOC(=O)c1ccccc1Br)c1ccc(Cl)cc1
Result :: 5.55

Query :: Please report the recorded pIC50 for Cc1ccc(C(=O)/C=C/Nc2ccc(F)cc2F)o1 .
Result :: 4.24

Query :: Entry under review: CCCCOC(=O)Sc1nc2ccccc2o1 . Reported pIC50?
Result :: 7.10
